Catalogue of C-term flag values
Target: T1, B3GNT2 (Homo sapiens, UniProt Q9NY97)
T1 construct: The respective ORFs of candidate genes [CD274 (NM_014143), MCL1 (NM_021960), JUNB (NM_002229), and B3GNT2 (NM_006577)] were synthesized; expressed in transfected cells; host or cells: A375 melanoma cells (lentiviral ORF overexpression)
T1 sequence (Q9NY97 1-397): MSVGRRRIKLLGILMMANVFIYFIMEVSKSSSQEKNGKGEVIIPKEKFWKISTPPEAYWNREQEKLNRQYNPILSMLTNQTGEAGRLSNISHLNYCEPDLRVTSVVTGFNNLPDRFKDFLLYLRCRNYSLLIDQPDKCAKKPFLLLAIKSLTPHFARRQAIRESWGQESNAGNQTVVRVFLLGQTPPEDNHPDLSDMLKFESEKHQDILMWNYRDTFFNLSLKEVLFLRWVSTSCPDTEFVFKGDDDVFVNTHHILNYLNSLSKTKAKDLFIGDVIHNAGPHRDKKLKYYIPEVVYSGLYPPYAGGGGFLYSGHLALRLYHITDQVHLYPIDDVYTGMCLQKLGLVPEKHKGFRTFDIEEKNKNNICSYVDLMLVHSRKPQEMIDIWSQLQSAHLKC
Test: Co-IP of FLAG-tagged B3GNT2 followed by mass spectrometry
Type: cell-based
Design: unit not given here
Conditions: Co-IP followed by mass spectrometry of B3GNT2; C-term tag, FLAG pull-down
ENDPOINT NAME: C-term flag

# MOLECULE, RECORDED RESULT
data = [
    ("NAP1L1 (protein) ADIDNKEQSELDQDLDDVEEVEEEETGEETKLKARQLTVQMMQNPQILAALQERLDGLVETPTGYIESLPRVVKRRVNALKNLQVKCAQIEAKFYEEVHDLERKYAVLYQPLFDKRFEIINAIYEPTEEECEWKPDEEDEISEELKEKAKIEDEKKDEEKEDPKGIPEFWLTVFKNVDLLSDMVQEHDEPILKHLKDIKVKFSDAGQPMSFVLEFHFEPNEYFTNEVLTKTYRMRSEPDDSDPFSFDGPEIMGCTGCQIDWKKGKNVTLKTIKKKQKHKGRGTVRTVTKTVSNDSFFNFFAPPEVPESGDLDDDAEAILAADFEIGHFLRERIIPRSVLYFTGEAIEDDDDDYDEEGEEADEEGEEEGDEENDPDYDPKKDQNPAEC", 4),
    ("LSM12 (protein) AAPPGEYFSVGSQVSCRTCQEQRLQGEVVAFDYQSKMLALKCPSSSGKPNHADILLINLQYVSEVEIINDRTETPPPLASLNVSKLASKARTEKEEKLSQAYAISAGVSLEGQQLFQTIHKTIKDCKWQEKNIVVMEEVVITPPYQVENCKGKEGSALSHVRKIVEKHFRDVESQKILQRSQAQQPQKEAALSS", 4),
    ("TMEM59 (protein) EAFDSVLGDTASCHRACQLTYPLHTYPKEEELYACQRGCRLFSICQFVDDGIDLNRTKLECESACTEAYSQSDEQYACHLGCQNQLPFAELRQEQLMSLMPKMHLLFPLTLVRSFWSDMMDSAQSFITSSWTFYLQADDGKIVIFQSKPEIQYAPHLEQEPTNLRESSLSKMSYLQMRNSQAHRNFLEDGESDGFLRCLSLNSGWILTTTLVLSVMVLLWICCATVATAVEQYVPSEKLSIYGDLEFMNEQKLNRYPASSLVVVRSKTEDHEEAGPLPTKVNLAHSEI", 0),
    ("TAGLN (protein) ANKGPSYGMSREVQSKIEKKYDEELEERLVEWIIVQCGPDVGRPDRGRLGFQVWLKNGVILSKLVNSLYPDGSKPVKVPENPPSMVFKQMEQVAQFLKAAEDYGVIKTDMFQTVDLFEGKDMAAVQRTLMALGSLAVTKNDGHYRGDPNWFMKKAQEHKREFTESQLQEGKHVIGLQMGSNRGASQAGMTGYGRPRQIIS", 3),
    ("CALML5 (protein) AGELTPEEEAQYKKAFSAVDTDGNGTINAQELGAALKATGKNLSEAQLRKLISEVDSDGDGEISFQEFLTAAKKARAGLEDLQVAFRAFDQDGDGHITVDELRRAMAGLGQPLPQEELDAMIREADVDQDGRVNYEEFARMLAQE", 4),
]
